Origin of measurements: PubChem BioAssay AID1775

Experiment: green autofluorescence of compounds with avidin beads – biophysical, 488/530 nm, flow cytometry, artefact control, profiling panel (AID 1775)
Details: compound fluorescence 488/530 nm, at 10 µM, hits give high values
Among all 220,000 compounds or so, about 820 (0.37%) were called active. The sample as a whole holds a higher share of actives than the screen did.
Label No if fluorescence (KMESF) falls below 10; label Yes in every other case.

* COc1ccccc1NC(=O)CCCc1c[nH]c2ccccc12 | Yes
* CSc1nc2nc(-c3cccc(C(F)(F)F)c3)ccn2n1 | Yes
* O=C(c1cccc(S(=O)(=O)Nc2ccccc2Cl)c1)N1CCN(C(=O)c2ccco2)CC1 | Yes
* CC(C)=CC(=O)Nc1nnc(-c2ccc(F)cc2)s1 | Yes
* O=C(Cc1c(F)cccc1Cl)N1CCN(C(=O)c2ccco2)CC1 | Yes
* O=C(COC(=O)C12CC3CC(CC(C3)C1)C2)NCc1ccco1 | Yes
* O=C1CC(N2CCN(c3ccc(F)cc3)CC2)C(=O)N1c1ccccc1 (configuration not stated) | No
* COc1cccc(-c2ccc(SCC(=O)N3CCN(c4ccccc4)CC3)nn2)c1 | No
* O=C(c1ccco1)N1CCN(c2cccc(Cl)c2)CC1 | Yes
* O=C(COC(=O)CCC(=O)c1cccs1)NCc1ccco1 | No
* Cc1ccc(C(=O)Nc2nnc(-c3ccncc3)s2)o1 | No
